- Test system: MKL-2
- Measurement notes: qHTS assay to identify novel small-molecules to repurpose for Merkel cell carcinoma treatment (AID 1296009); further: nearly all actives have a fitted effect of over 60% in size
- Condition notes: MCC and control cell lines, CellTiter-Glo viability, 72 h; series mostly up to 46 µM
Records with an inconclusive call do not appear. Calls of active or inactive are those of the source. The call rests on the fitted dose curve; in most records, active means well fitted inhibition curve with a large enough effect; inconclusive means small, poorly fitted or top-dose-only effect; inactive means flat fitted curve, though single readings scatter.
Labels: YES (active), NO (inactive)

| Compound | Class |
| --- | --- |
| OCCN1CCN(CCCN2c3ccccc3C=Cc3ccccc32)CC1 | NO |
| CC(C)(C)c1ccc(C(=O)CCCN2CCC(OC(c3ccccc3)c3ccccc3)CC2)cc1 | YES |
| Cc1nc2c([nH]1)c(=O)n(C)c(=O)n2Cc1ccco1 | NO |
| c1ccc2c(c1)CCCC2C1=NCCN1 (stereo unspecified) | NO |
| C[N+](C)(C)CCOC(N)=O | NO |
| CNCCC(Oc1ccccc1OC)c1ccccc1 (stereo unspecified) | NO |
